These measurements were taken from ChEMBL document CHEMBL5356938.

Assay: Inhibition of Escherichia coli DHDPS using ASA as substrate assessed as NADPH oxidation to NADP+ preincubated with compound for 12 mins in the presence of NADPH followed by substrate addition by UV/Vis spectrophotometric analysis
PROPERTY NAME: IC50 (µM)
Hi! Could you send only the number? It should be in µM, unit omitted.

MOLECULE	PROPERTY NAME	TEST RESULT
COc1ccc(/C=C2\SC(=O)N(C(CCCC(C(=O)O)N3C(=O)S/C(=C\c4ccc(OC)cc4)C3=O)C(=O)O)C2=O)cc1 (configuration not stated)	IC50	40.6
CCOC(=O)C(Br)CCC(Br)C(=O)OCC (configuration not stated)	IC50	77.4
COc1ccc(/C=C2\SC(=O)N([C@H](C[C@H](C(=O)O)N3C(=O)S/C(=C\c4ccc(OC)cc4)C3=O)C(=O)O)C2=O)cc1 (racemic)	IC50	30.4
COc1ccc(/C=C2\SC(=O)N([C@H](CC[C@@H](C(=O)O)N3C(=O)S/C(=C\c4ccc(OC)cc4)C3=O)C(=O)O)C2=O)cc1	IC50	42
COc1ccc(/C=C2\SC(=O)N(CC(=O)O)C2=O)cc1	IC50	47

Lookup: Would you mind telling me what IC50 value was observed for `COc1ccc(/C=C2\SC(=O)N([C@H](C[C@@H](C(=O)O)N3C(=O)S/C(=C\c4ccc(OC)cc4)C3=O)C(=O)O)C2=O)cc1` ?
Found: 9.95

Lookup: And what about the molecule COc1ccc(/C=C2\SC(=O)N([C@@H](CC[C@@H](C(=O)O)N3C(=O)S/C(=C\c4ccc(OC)cc4)C3=O)C(=O)O)C2=O)cc1 (racemic) ?
Found: 19.7

---

Target: 4-hydroxy-tetrahydrodipicolinate synthase 1, chloroplastic (Arabidopsis thaliana)
Sequence (Q9LZX6 whole entry): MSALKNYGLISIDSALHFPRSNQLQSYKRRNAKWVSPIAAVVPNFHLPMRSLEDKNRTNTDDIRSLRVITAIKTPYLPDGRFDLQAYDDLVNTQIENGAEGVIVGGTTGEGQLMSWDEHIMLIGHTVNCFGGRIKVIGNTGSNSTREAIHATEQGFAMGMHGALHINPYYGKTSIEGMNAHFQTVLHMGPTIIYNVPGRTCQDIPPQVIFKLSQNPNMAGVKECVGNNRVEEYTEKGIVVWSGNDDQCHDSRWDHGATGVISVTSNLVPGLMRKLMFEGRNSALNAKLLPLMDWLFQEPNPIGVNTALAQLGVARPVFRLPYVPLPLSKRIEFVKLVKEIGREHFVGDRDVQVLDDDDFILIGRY
PROPERTY NAME: pIC50
Value format note: pIC50 is -log10 of concentration (mol/L); just state the number.

Lookup: Can you look up pIC50 on 4-hydroxy-tetrahydrodipicolinate synthase 1, chloroplastic (Arabidopsis thaliana) for `COc1ccc(/C=C2\SC(=O)N([C@H](C[C@@H](C(=O)O)N3C(=O)S/C(=C\c4ccc(OC)cc4)C3=O)C(=O)O)C2=O)cc1` ?
Found: 4.45

Lookup: And `COc1ccc(/C=C2\SC(=O)N(CC(=O)O)C2=O)cc1` ?
Found: 4.18
